ASSAYED_SYSTEM: EGFR L858R mutant (Homo sapiens (Human), UniProt P00533, L858R)
Sequence (P00533 25-1210 L858R): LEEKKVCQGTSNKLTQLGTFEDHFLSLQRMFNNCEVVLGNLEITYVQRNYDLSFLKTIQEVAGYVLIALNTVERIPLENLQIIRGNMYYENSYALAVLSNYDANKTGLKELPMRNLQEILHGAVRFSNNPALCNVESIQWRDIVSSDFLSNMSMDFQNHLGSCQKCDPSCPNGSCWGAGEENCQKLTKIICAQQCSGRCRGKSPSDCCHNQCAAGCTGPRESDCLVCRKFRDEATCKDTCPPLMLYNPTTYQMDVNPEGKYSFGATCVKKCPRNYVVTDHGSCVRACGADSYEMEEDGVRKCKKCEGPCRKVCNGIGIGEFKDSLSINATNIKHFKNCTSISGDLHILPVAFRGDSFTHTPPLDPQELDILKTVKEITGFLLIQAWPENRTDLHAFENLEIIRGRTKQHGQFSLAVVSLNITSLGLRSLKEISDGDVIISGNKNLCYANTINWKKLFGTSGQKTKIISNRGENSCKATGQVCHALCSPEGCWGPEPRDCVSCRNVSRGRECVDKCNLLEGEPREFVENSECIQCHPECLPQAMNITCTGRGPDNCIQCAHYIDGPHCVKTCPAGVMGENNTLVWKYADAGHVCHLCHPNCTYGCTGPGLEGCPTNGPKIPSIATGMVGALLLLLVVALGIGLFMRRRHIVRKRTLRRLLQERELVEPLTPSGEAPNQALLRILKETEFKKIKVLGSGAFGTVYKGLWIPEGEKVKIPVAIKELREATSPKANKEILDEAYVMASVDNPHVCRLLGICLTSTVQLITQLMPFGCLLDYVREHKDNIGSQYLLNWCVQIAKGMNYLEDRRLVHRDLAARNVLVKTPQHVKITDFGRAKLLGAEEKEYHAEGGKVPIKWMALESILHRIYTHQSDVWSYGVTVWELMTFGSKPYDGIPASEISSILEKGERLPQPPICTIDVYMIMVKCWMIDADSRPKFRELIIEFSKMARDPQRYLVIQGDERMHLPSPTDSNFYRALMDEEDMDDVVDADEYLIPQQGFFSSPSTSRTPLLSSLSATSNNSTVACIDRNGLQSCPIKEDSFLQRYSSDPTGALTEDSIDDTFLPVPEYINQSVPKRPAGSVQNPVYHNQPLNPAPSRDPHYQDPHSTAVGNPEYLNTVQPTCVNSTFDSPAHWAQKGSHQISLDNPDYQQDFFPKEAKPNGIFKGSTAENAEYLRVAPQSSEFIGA
ASSAY_NOTES: HotSpot radiometric kinase assay, EGFR L858R mutant
RECORDED_CONDITIONS: 10 μM ATP
VALUE_KIND: pIC50
Scale note: pIC50 = -log10(concentration in M).

Worked examples follow.
Cc1nn(CCN2CCCC2)c2c1/C=C/c1n[nH]c3ccc(cc13)-c1cnn(C)c1C(C)OCCO2 (stereo not shown) | 7.06
CCOc1nn(CCO)c2c1/C=C/c1n[nH]c3ccc(cc13)-c1cnn(C)c1O[C@H](C)CNC2 | 7.02
CCOc1nn(CCO)c2c1/C=C/c1n[nH]c3ccc(cc13)-c1cnn(C)c1OC[C@H](C)N(C1CC1)C2 | 7.88
Cc1nn(C)c2c1/C=C/c1n[nH]c3ccc(cc13)-c1cnn(C)c1OCCN(C)C2 | 6.84
Cc1nn(C)c2c1/C=C/c1n[nH]c3ccc(cc13)-c1cnn(C)c1OCCCO2 | 6.98

## Task Report value only: pIC50, EGFR L858R mutant (Homo sapiens (Human), UniProt P00533, L858R), Cc1nn([C@H]2CN(C)C[C@@H]2O)c2c1/C=C/c1n[nH]c3ccc(cc13)-c1cnn(C)c1OCCCO2 (racemic)
## Result 7.25

## Task // fetch pIC50; item: CCOc1nccc2c1/C=C/c1n[nH]c3ccc(cc13)-c1cnn(C)c1O[C@@H](C)CN(C)C2 ; system: EGFR L858R mutant (Homo sapiens (Human), UniProt P00533, L858R)
## Result 6.11

## Task Under EGFR L858R mutant (Homo sapiens (Human), UniProt P00533, L858R): report pIC50 of CCOc1nn(CCO)c2c1/C=C/c1n[nH]c3ccc(cc13)-c1cnn(C)c1O[C@H](C)CN(C(C)=O)C2 .
## Result 7.43

## Task State pIC50 (EGFR L858R mutant (Homo sapiens (Human), UniProt P00533, L858R)) of CC(C)Oc1nn(CCO)c2c1/C=C/c1n[nH]c3ccc(cc13)-c1cnn(C3CC3)c1O[C@@H](C)CN(C)C2 .
## Result 8.29

## Task Give pIC50 for Cn1ncc2c1OCCN1CC[C@@H](Oc3ccc(C(C)(C)O)cc3/C=C/c3n[nH]c4ccc-2cc34)C1=O tested on EGFR L858R mutant (Homo sapiens (Human), UniProt P00533, L858R).
## Result 6.89

* * *

ASSAYED_SYSTEM: EGFR L858R/T790M/C797S mutant (Homo sapiens (Human), UniProt P00533, C797S/L858R/T790M)
Sequence (P00533 25-1210 T790M/C797S/L858R): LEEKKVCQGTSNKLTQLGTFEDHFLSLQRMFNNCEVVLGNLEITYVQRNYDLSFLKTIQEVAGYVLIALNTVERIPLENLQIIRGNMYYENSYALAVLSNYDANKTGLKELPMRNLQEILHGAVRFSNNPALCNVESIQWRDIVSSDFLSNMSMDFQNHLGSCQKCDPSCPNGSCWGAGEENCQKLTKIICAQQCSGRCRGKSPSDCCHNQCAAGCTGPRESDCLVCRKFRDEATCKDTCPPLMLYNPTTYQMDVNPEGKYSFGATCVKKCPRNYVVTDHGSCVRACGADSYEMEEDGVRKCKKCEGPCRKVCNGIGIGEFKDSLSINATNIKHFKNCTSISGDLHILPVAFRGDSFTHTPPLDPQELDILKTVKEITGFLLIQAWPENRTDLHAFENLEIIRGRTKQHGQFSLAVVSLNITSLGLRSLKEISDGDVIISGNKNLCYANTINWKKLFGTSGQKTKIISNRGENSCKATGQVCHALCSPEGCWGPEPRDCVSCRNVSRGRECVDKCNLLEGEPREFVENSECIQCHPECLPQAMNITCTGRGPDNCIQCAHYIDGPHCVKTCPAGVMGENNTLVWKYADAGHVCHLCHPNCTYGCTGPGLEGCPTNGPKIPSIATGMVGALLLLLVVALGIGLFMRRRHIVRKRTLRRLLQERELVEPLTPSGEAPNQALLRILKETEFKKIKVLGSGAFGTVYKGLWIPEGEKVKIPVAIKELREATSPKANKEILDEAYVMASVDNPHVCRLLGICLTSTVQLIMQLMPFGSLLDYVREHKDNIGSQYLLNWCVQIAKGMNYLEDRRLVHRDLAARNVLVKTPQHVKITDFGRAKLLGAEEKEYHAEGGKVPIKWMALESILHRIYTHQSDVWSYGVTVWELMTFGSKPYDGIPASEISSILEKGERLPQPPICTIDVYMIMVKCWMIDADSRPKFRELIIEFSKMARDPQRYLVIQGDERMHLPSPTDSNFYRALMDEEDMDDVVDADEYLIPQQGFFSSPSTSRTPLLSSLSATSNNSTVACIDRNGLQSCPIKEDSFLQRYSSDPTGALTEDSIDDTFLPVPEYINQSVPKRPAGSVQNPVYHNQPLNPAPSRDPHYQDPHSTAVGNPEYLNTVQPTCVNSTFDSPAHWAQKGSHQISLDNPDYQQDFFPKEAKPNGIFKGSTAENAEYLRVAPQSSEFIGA
ASSAY_NOTES: HotSpot radiometric kinase assay, EGFR L858R/T790M/C797S mutant
RECORDED_CONDITIONS: 10 μM ATP
Listed next: entries and their corresponding IC50.

A selection of reference data follows.
Cc1nn([C@H]2C[C@@H](N(C)CCN(C)C)C2)c2c1/C=C/c1n[nH]c3ccc(cc13)-c1cnn(C)c1OCCCO2 [Example 103] | 40.4 nM
Cc1nn(C[C@@H](C)O)c2c1/C=C/c1n[nH]c3ccc(cc13)-c1cnn(C)c1O[C@@H](C)CN(C)C2 [Example 127] | 0.43 nM

Okay, now this compound:
## Task Read the entry CCOc1nn([C@@H](C)CO)c2c1/C=C/c1n[nH]c3cc(F)c(cc13)-c1cnn(C)c1O[C@@H](C)CN(CC)C2 [Example 215] and write its reported IC50.
## Result 0.89 nM

* * *

Below, each of the compounds is paired with its reported pIC50 value.
ASSAYED_SYSTEM: EGFR (D770_N771insNPG) (Homo sapiens (Human), UniProt P00533, INS770NPG)
Sequence (P00533 other isoform, or with tags, fused parts or gaps del 1-668/ins NPG behind 770 limits assumed): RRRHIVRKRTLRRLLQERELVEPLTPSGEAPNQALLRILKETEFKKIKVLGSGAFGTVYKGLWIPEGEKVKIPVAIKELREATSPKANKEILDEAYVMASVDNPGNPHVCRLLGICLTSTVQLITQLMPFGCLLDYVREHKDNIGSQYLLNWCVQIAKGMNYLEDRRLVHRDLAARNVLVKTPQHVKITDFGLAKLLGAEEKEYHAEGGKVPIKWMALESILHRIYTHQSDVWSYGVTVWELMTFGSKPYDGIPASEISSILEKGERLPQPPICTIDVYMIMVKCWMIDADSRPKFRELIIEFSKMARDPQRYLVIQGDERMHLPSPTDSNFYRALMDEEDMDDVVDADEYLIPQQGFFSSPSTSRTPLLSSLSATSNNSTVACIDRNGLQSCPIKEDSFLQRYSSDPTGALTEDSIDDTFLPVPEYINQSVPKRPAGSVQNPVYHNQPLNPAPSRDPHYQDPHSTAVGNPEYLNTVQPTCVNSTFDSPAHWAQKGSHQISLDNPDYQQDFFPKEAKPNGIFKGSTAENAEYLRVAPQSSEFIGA
ASSAY_NOTES: HotSpot radiometric kinase assay, EGFR (D770_N771insNPG)
RECORDED_CONDITIONS: 10 μM ATP, read-out: EGFR (Δ770_N771insNPG) IC50
pIC50: −log10 of the molar value.

## Task Under EGFR (D770_N771insNPG) (Homo sapiens (Human), UniProt P00533, INS770NPG), report pIC50 for Cc1nn(C)c2c1/C=C/c1n[nH]c3ccc(cc13)-c1cnn(C)c1OCCN(C)C(=O)CO2
## Result < 6.00

## Task Name the value of pIC50 reported for Cc1c2c(nn1CCO)CNC[C@H](C)Oc1c(cnn1C)-c1ccc3[nH]nc(c3c1)/C=C/2 when tested on EGFR (D770_N771insNPG) (Homo sapiens (Human), UniProt P00533, INS770NPG).
## Result < 6.00

## Task State, for EGFR (D770_N771insNPG) (Homo sapiens (Human), UniProt P00533, INS770NPG), measured pIC50 of the compound listed here: CCOc1nccc2c1/C=C/c1n[nH]c3ccc(cc13)-c1cnn(C)c1O[C@@H](C)CN(C)C2
## Result < 6.00

* * *

ASSAYED_SYSTEM: CLK2 (Homo sapiens (Human), UniProt P49760)
Sequence (P49760 whole entry): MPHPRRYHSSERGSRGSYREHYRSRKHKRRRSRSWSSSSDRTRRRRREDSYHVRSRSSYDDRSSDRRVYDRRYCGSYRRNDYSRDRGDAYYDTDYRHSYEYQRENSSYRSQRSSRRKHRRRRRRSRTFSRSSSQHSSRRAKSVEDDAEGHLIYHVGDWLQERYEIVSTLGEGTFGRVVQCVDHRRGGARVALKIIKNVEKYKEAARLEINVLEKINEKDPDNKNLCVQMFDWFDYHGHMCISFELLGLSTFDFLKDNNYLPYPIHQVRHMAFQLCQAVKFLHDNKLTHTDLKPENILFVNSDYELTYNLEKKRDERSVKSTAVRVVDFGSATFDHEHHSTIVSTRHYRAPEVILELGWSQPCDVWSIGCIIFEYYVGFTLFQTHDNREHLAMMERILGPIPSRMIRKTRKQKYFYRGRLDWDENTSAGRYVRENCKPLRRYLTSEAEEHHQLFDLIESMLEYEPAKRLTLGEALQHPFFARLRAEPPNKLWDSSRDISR
ASSAY_NOTES: Inhibition of CLK2 kinase activity evaluated at Nanosyn (ADP-Glo)
Type: biochemical
RECORDED_CONDITIONS: ADP-Glo luminescence
Each record's IC50 is compared with low value (below 0.1 nM), medium value (0.1 nM to below 1 nM), high value (1 nM or more) to give its class.

Examples from the recorded data:
CCN1Cc2c(c(OC(C)C)nn2CCO)/C=C/c2n[nH]c3cc(F)c(cc23)-c2cnn(C)c2O[C@@H](C)C1 | high value
CC(C)Oc1nn(CCO)c2c1/C=C/c1n[nH]c3ccc(cc13)-c1cnn(C)c1O[C@@H](C(F)F)CN(C)C2 (single isomer, unassigned) | high value
CCN1Cc2nn(C)c(C)c2/C=C/c2n[nH]c3ccc(cc23)-c2cnn(C)c2O[C@@H](C)C1 | high value
C[C@@H](C#N)Oc1nn(CCO)c2c1/C=C/c1n[nH]c3cc(F)c(cc13)-c1cnn(C)c1O[C@@H](C)CN(C)C2 | medium value
C[C@H](C#N)Oc1nn(CCO)c2c1/C=C/c1n[nH]c3cc(F)c(cc13)-c1cnn(C)c1O[C@@H](C)CN(C)C2 | medium value
Cc1c2c(nn1C)OCCOCc1c(cnn1C)-c1ccc3[nH]nc(c3c1)/C=C/2 | low value
CN1CCC(c2ccc3c(c2)O[C@@H]2CCN(CCOc4c(cnn4C)-c4ccc5[nH]nc(c5c4)/C=C/3)C2=O)CC1 | low value

Could you now look at the following compound, please?
## Task Place this compound in its band: CC(C)Oc1nn(CCO)c2c1/C=C/c1n[nH]c3ccc(cc13)-c1cnn(C)c1O[C@@H](C)[C@H]1CCCN1C2
## Result medium value

* * *

ASSAYED_SYSTEM: EGFR Δ746-750 mutant (Homo sapiens (Human), UniProt P00533, DEL746-750)
Sequence (P00533 other isoform, or with tags, fused parts or gaps del 1-668/del 746-750 limits assumed): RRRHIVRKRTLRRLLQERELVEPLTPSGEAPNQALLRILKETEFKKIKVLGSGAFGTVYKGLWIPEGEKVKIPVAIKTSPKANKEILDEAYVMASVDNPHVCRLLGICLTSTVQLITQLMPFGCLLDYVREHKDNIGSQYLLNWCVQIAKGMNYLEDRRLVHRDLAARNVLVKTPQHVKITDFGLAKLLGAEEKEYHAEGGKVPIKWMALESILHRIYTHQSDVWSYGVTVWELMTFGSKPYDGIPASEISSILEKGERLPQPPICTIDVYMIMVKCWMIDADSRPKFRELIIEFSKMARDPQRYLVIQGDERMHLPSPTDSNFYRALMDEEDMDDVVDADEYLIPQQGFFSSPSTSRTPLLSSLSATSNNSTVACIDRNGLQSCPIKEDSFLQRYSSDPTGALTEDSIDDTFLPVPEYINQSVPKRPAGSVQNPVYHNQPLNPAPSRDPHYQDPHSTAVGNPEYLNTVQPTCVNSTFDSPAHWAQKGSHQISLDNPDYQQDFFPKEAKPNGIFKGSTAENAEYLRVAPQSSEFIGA
ASSAY_NOTES: HotSpot radiometric kinase assay, EGFR Δ746-750 mutant
RECORDED_CONDITIONS: 10 μM ATP
Method: Biochemical Assays for Inhibition of Wild-Type and Mutant EGFRs Briefly, specific kinase/substrate pairs along with required cofactors were prepared in reaction buffer; 20 mM Hepes pH 7.5, 10 mM […], 1 mM EGTA, 0.02% Brij35, 0.02 mg/ml BSA, 0.1 mM Na3VO4, 2 mM DTT, 1% DMSO. Compounds were delivered into the reaction, followed […] later by addition of a mixture of ATP (Sigma, St. Louis MO) and ^33P ATP (Perkin Elmer, Waltham MA) to a final concentration of 10 μM. […]
VALUE_KIND: log10 IC50 (log10 of the value in nM)
The common logarithm of IC50 in nM is what is listed.

## Task Dear colleague, please send me the reported log10 IC50 for CCOc1nn(CCO)c2c1/C=C/c1n[nH]c3ccc(cc13)-c1cnn(C)c1OC[C@H](C)N(C1CC1)C2 [Example 198] when you can.
## Result 0.77

## Task Quote log10 IC50 reported for CCc1nn(CCO)c2c1/C=C/c1n[nH]c3ccc(cc13)-c1cnn(C)c1OCCCO2 [Ex. 23] please.
## Result 1.47

## Task Answer with reported log10 IC50 of C[C@H]1CN(C)Cc2c(c(OCC#N)nn2C)/C=C/c2n[nH]c3ccc(cc23)-c2cnn(C)c2O1 [Example 163]
## Result 0.87

## Task Write down log10 IC50 measured for item CN1CCC(c2ccc3c(c2)O[C@@H]2CCN(CCOc4c(cnn4C)-c4ccc5[nH]nc(c5c4)/C=C/3)C2=O)CC1 [Example 112]
## Result -0.21

## Task # return recorded log10 IC50 for entry Cc1nn(CCO)c2c1/C=C/c1n[nH]c3ccc(cc13)-c1cnn(C)c1O[C@@H](C)CN(C(C)C)C2 [Example 114]
## Result -0.77

* * *

ASSAYED_SYSTEM: EGFR (D770_N771insNPG) (Homo sapiens (Human), UniProt P00533, INS770NPG)
ASSAY_NOTES: HotSpot radiometric kinase assay, EGFR (D770_N771insNPG)
RECORDED_CONDITIONS: 10 μM ATP, read-out: EGFR (Δ770_N771insNPG) IC50
Values of IC50 strictly less than 0.1 µM map to true (1), and values of at least 0.1 µM map to false (0).

COCc1nn(C)c2c1/C=C/c1n[nH]c3ccc(cc13)-c1cnn(C)c1OCCCO2 | false (0)
CCOc1nn(CCO)c2c1/C=C/c1n[nH]c3ccc(cc13)-c1cnn(C)c1O[C@@H]1CCCN(C2)C1 | false (0)
C[C@H]1CN(C)Cc2c(c(OCC(F)(F)F)nn2CCO)/C=C/c2n[nH]c3cc(F)c(cc23)-c2cnn(C)c2O1 | false (0)

## Task Does this compound meet the criterion IC50 < 0.1 µM? Cc1c2c(nn1CCC(C)O)CN(C)C[C@H](C)Oc1c(cnn1C)-c1ccc3[nH]nc(c3c1)/C=C/2 (stereo partly drawn)
## Result false (0)

## Task A record lists CCOc1nn(CCO)c2c1/C=C/c1n[nH]c3ccc(cc13)-c1cnn(C)c1OC[C@H](C)N(C1CC1)C2 . Is its IC50 below 0.1 µM?
## Result true (1)

## Task Threshold test, IC50 < 0.1 µM: Cc1onc2c1/C=C/c1n[nH]c3ccc(cc13)-c1cnn(C)c1O[C@@H](C)CN(C)C2
## Result false (0)

Sourced from patent US20250353864A1
